Tested on: MDA-MB-361
Assay: MDA-MB-361 proliferation
Assay type: cell-based
Conditions: Homo sapiens; in vitro IC50, MDA-MB-361 cells
Procedure: The ability of one or more subject compounds to inhibit tumor cell line proliferation is determined according to standard procedures known in the art. For instance, an in vitro cellular proliferation assay can be performed to measure the metabolic activity of live cells. The assay is performed in a 96 well microtiter plate using Alamar Blue reduction. […] Alamar Blue fluoresce is read at 560 Ex/590 Em, and IC50 values are calculated using GraphPad Prism 5. […]
pIC50: −log10 of the molar value.
Recorded measurements of pIC50, one per entry
RESULT_TYPE: pIC50

>  <MOLECULE>
C[C@H](N)C(=O)N1CCN(c2cnc3ccc(-c4ccc5oc(N)nc5c4)nc3c2)CC1

>  <MEASURED_ON>
MDA-MB-361

>  <RESULT_TYPE>
pIC50

>  <REPORTED>
> 5.00

$$$$
>  <MOLECULE>
Cc1nccn1C1CN(c2cnc3ccc(-c4ccc5oc(N)nc5c4)nc3n2)C1

>  <MEASURED_ON>
MDA-MB-361

>  <RESULT_TYPE>
pIC50

>  <REPORTED>
> 5.00

$$$$
>  <MOLECULE>
C[C@H]1CN(C2CN(c3cnc4ccc(-c5ccc6oc(N)nc6c5)nc4n3)C2)CCN1C

>  <MEASURED_ON>
MDA-MB-361

>  <RESULT_TYPE>
pIC50

>  <REPORTED>
> 5.00

$$$$
>  <MOLECULE>
CN1CCN(C2CN(c3cnc4ccc(-c5ccc6oc(N)nc6c5)nc4c3)C2)CC1(C)C

>  <MEASURED_ON>
MDA-MB-361

>  <RESULT_TYPE>
pIC50

>  <REPORTED>
> 7.00

$$$$
>  <MOLECULE>
Nc1nc2cc(-c3ccc4ncc(N5CCOCC5)cc4n3)ccc2o1

>  <MEASURED_ON>
MDA-MB-361

>  <RESULT_TYPE>
pIC50

>  <REPORTED>
> 5.00

$$$$
>  <MOLECULE>
Nc1nc2cc(-c3ccc4ncc(N5CC(N6CCN(CCO)CC6)C5)nc4n3)ccc2o1

>  <MEASURED_ON>
MDA-MB-361

>  <RESULT_TYPE>
pIC50

>  <REPORTED>
> 5.00

$$$$
>  <MOLECULE>
Nc1nc2cc(-c3ccc4ncc(-c5cccnc5)cc4n3)ccc2o1

>  <MEASURED_ON>
MDA-MB-361

>  <RESULT_TYPE>
pIC50

>  <REPORTED>
< 5.00

$$$$
>  <MOLECULE>
CC(C)(N)C(=O)N1CCN(c2cnc3ccc(-c4ccc5oc(N)nc5c4)nc3c2)CC1

>  <MEASURED_ON>
MDA-MB-361

>  <RESULT_TYPE>
pIC50

>  <REPORTED>
> 6.00

$$$$

----------
Recorded measurements of IC50, one per entry
Target: PI3K γ (Homo sapiens)
Sequence (P48736 whole entry): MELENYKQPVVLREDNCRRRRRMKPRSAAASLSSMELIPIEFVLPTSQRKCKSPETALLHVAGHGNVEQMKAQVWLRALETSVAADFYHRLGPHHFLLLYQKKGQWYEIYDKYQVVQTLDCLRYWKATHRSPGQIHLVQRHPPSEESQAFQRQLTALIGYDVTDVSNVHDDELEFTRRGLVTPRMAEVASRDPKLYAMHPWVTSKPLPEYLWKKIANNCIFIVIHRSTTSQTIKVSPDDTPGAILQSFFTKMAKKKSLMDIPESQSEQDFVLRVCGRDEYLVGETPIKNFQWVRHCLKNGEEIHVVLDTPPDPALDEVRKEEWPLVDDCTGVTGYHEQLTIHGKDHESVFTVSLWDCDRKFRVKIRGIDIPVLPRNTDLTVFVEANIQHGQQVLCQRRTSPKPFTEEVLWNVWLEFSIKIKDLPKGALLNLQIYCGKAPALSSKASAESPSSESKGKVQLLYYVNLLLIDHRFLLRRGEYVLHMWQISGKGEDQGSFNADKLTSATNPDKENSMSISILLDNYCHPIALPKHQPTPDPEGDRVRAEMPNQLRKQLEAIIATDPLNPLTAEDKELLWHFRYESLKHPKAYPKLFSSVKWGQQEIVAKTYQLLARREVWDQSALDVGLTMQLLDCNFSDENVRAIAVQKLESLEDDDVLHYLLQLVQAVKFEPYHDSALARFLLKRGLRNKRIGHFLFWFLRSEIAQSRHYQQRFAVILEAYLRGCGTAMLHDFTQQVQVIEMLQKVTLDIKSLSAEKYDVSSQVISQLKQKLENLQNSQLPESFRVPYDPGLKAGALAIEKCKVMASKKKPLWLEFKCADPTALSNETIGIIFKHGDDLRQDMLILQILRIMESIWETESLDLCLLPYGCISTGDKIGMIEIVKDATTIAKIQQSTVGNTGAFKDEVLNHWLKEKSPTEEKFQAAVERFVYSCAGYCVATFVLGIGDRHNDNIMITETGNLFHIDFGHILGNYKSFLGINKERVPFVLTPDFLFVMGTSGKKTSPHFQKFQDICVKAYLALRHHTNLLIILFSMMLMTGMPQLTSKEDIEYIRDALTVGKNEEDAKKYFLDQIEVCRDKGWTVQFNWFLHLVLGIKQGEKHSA

>  <MOLECULE>
C[C@H]1CN(C2CN(c3cnc4ccc(-c5ccc6nc(N)[nH]c6c5)nc4c3)C2)CCN1C

>  <IC50>
> 10 µM

$$$$
>  <MOLECULE>
CCN1CCN(C2CN(c3cnc4ccc(-c5ccc6nc(N)[nH]c6c5)nc4c3)C2)CC1

>  <IC50>
> 10 µM

$$$$
>  <MOLECULE>
Nc1nc2cc(-c3ccc4ncc(N5C6CCC5COC6)nc4n3)ccc2o1

>  <IC50>
< 0.1 µM

$$$$
>  <MOLECULE>
Nc1nc2cc(-c3ccc4ncc(N5C6CCC5COC6)cc4n3)ccc2o1

>  <IC50>
< 0.1 µM

$$$$
>  <MOLECULE>
Nc1nc2cc(-c3ccc4ncc(N5CC(N6C7CCC6COC7)C5)nc4n3)ccc2o1

>  <IC50>
> 10 µM

$$$$
>  <MOLECULE>
Nc1nc2cc(-c3ccc4ncc(N5CC(N6C7CCC6COC7)C5)cc4n3)ccc2o1

>  <IC50>
< 1 µM

$$$$
>  <MOLECULE>
CN1CCN(C2CN(c3ccc4ncc(-c5ccc6oc(N)nc6c5)cc4n3)C2)CC1

>  <IC50>
> 10 µM

$$$$
>  <MOLECULE>
Nc1nc2cc(-c3ccc4ncc(N5CC6CCC(C5)O6)nc4n3)ccc2o1

>  <IC50>
< 1 µM

$$$$
